Molecular target: GST-RAMANK1-CSL complex (human) (UniProt P46531)
Test: ALPHAscreen NTC competition: peptide titrated against Bio-sdnMAML1 binding to GST-RAMANK1-CSL; IC50 with 95% CI
Bridge positions count the residues as written; N and C are the ends. Square brackets hold non-standard residues; d marks the D form. Ends that are not written are not given here. 1Nal = N[C@@H](Cc1cccc2ccccc12)C(=O)O; S5 = C=CCCC[C@](C)(N)C(=O)O; βAla = NCCC(=O)O
QUANTITY NAME: pIC50
Interpret pIC50 as the negative base-10 log of the concentration measured in mol/L.

Past entries and their recorded results:
binder="Ac-W[βAla]ERWRRRI[S5]FCR[S5]HHST (staple 10-14) [SAHM1-22]" obs_value=6.16
binder="Ac-W[βAla]ERWRRRL[S5]WVR[S5]HHST (staple 10-14) [SAHM1-38]" obs_value=6.27
binder="Ac-W[βAla]ERWRRRL[S5]YFR[S5]HHSTCEAR[1Nal] (staple 10-14) [SAHM1-61]" obs_value=6.36

Problem: Annotate the binder Ac-W[βAla]ERWRRRI[S5]WCR[S5]HHSTCEARY (staple 10-14; cysteine pairing not given here) [SAHM1-27 (E21-Y41 scaffold, L23W/L29W double mutant)] with its measured pIC50.
Solution: 6.70

Problem: Look up and state reported pIC50 for Ac-W[βAla]ERWRRRL[S5]YVR[S5]HHSTCEARYEAVSPERL (staple 10-14) [SAHM1-80]
Solution: 6.44
